tested on: SNB-75 CNS; experiment: NCI-60 one-dose screen, 48 h (100 = growth as untreated, 0 = no growth, -100 = all killed); settings: 10 µM unless noted
About 83,000 compounds went through this panel and 20% of them were active in at least one assay; those are over-represented in the sample as a whole.
value kind: growth (%)
Return type: number; implicit unit %.

Asked: What value of growth has been reported for the following molecule? O=C1C=CC(n2cc(F)c(=O)[nH]c2=O)O1 (configuration not stated)
Given back: 79.8

Next, consider the following molecule.
Asked: What value of growth has been reported for the following molecule? CCOC(=O)CN1CCC(C(=O)OCC)CC1
Given back: 106

---

system: HCC-2998 colon; test: NCI-60 one-dose screen, 48 h (100 = growth as untreated, 0 = no growth, -100 = all killed); details: 10 µM unless noted
This is part of a sample that, as a whole, favours compounds with a hit. Of some 83,000 tested, about 20% had one in any assay.
value kind: growth (%)
Return type: number; implicit unit %.

Use the examples below as a reference point.
Asked: What value of growth has been reported for the following compound? CC(=O)c1cc2ccccc2o1
Given back: 109

Asked: What value of growth has been reported for the following compound? COC(=O)c1nc(N)nc(C(=O)OC)c1C(=O)c1cccc2ccccc12
Given back: 106

***
Asked: What value of growth has been reported for the following compound? O=C1C=CC(n2cc(F)c(=O)[nH]c2=O)O1 (centres undefined)
Given back: 22.3

Asked: What value of growth has been reported for the following compound? Cc1cc2ccccc2c2cc3ccccc3cc12
Given back: 92.5

Asked: What value of growth has been reported for the following compound? CCC(C)NC(=O)c1ccccc1C (centres undefined)
Given back: 96.7

Asked: What value of growth has been reported for the following compound? CCOP(C)(=O)/C(Cc1ccc(OC)c(OC)c1)=N\O (centres undefined)
Given back: 98.5

---

tested on: SF-268 CNS; assay: NCI-60 one-dose screen, 48 h (100 = growth as untreated, 0 = no growth, -100 = all killed); details: 10 µM unless noted
This is part of a sample that, as a whole, favours compounds with a hit. Of some 83,000 tested, about 20% had one in any assay.
Parameter growth: see the listing below.
Return type: number; implicit unit %.

Use the examples below as a reference point.
Asked: What value of growth has been reported for the following molecule? CCC(C)(O)CCC(C)(O)CC (stereo not drawn)
Given back: 99.2

Asked: What value of growth has been reported for the following molecule? CCc1ccccc1-n1[nH]c(C)c(C=N)c1=O
Given back: 114

Asked: What value of growth has been reported for the following molecule? O=c1[nH]c(=O)c2[nH]c(=O)[nH]c2[nH]1
Given back: 103

Asked: What value of growth has been reported for the following molecule? CCC/C(=N/NC(N)=O)c1ccco1
Given back: 102

Asked: What value of growth has been reported for the following molecule? Cc1cc(-c2ccc(N=Nc3c(C)nn(-c4ccc(S(=O)(=O)O)cc4)c3O)c(C)c2)ccc1N=Nc1ccc(O)c(C(=O)O)c1
Given back: 97.6

Asked: What value of growth has been reported for the following molecule? O=C(c1ccncc1)c1c(Cc2ccccc2)ccc2ccccc12
Given back: 117

***
Asked: What value of growth has been reported for the following molecule? Cc1ccc(NC(=S)N/C=C(\c2ccccc2)S(=O)Cc2ccccc2)c(C)c1 (stereo not drawn)
Given back: 101
